Where these numbers come from: patent US20070117842A1

assay: Solubility test (pH 3, Britton Robinson buffer); type: physicochemical; conditions: Britton Robinson buffer, 25 °C, pH 3, aqueous buffer, thermodynamic from solid, pH 3 Britton Robinson buffer, 25-26° C., shaking time 3 hours; read-out: solubility (concentration in filtrate)
QUANTITY: solubility at 3 h
The reply should consist of the numeric value with the unit placed after it.

### Prompt Tell me measured solubility at 3 h for COc1cc2nccc(Oc3ccc(NC(=O)NC4CC4)c(Cl)c3)c2cc1C(N)=O [Example 1d] please.
### Response 0.077 mg/mL

* * *

experiment: Solubility test (pH 3, Britton Robinson buffer); assay type: physicochemical; settings: Britton Robinson buffer, 25 °C, pH 3, aqueous buffer, thermodynamic from solid, pH 3 Britton Robinson buffer, 25-26° C., shaking time 5 hours; read-out: solubility (concentration in filtrate)
QUANTITY: solubility at 5 h (µg/mL)
Answers are plain numbers, in µg/mL.

### Prompt Tell me measured solubility at 5 h for COc1cc2nccc(Oc3ccc(NC(=O)NC4CC4)c(Cl)c3)c2cc1C(N)=O please.
### Response 71
